Sourced from paper PMC7956564

- TARGET_OR_TEST_SYSTEM: Bvu (Phocaeicola vulgatus)
- Construct: gene BVU_2192
- Sequence (A6L2D9 entry or part of it): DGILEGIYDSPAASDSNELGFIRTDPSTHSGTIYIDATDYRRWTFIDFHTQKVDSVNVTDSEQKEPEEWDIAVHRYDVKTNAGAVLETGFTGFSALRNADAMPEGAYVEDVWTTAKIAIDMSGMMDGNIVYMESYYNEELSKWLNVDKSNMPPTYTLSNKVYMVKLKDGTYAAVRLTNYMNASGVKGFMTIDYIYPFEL
- ASSAY_EXPLANATION: biochemical
ATTRIBUTE_MEASURED: Kd (nM)
Dear colleague, please return just the value in nM, with no unit written.

Item C=CC1=C(C)C2=Cc3c(C=C)c(C)c4[n]3[Fe][n]3c(c(C)c(CCC(=O)O)c3=CC3=NC(=C4)C(C)=C3CCC(=O)O)=CC1=N2 has what recorded Kd?
1.6
